# credit: patent US20060189528A1

- assayed.system: T1, TRAIL (human, UniProt P50591 114-281)
- T1 construct: also called TNF-related apoptosis inducing ligand; recombinant human TRAIL (R&D Systems)
- T1 sequence (P50591 114-281 limits assumed): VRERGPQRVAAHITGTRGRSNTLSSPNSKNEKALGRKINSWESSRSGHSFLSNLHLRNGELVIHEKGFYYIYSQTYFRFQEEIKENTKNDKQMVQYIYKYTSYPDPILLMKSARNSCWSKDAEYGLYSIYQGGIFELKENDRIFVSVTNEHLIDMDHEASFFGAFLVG
- measurement.description: ELISA on coated TRAIL, Fc-linked dimers; EC50 ratio to OPG(22-194).Fc wt; reduction in binding (higher EC50)
Measured TRAIL fold change cf wt accompanies every entry in the list below.
Give the number; fold is assumed, so skip it.

The value of TRAIL fold change cf wt measured for the binder OVP I115W (Fc fusion, Tested as C-terminal Fc-linked dimer with FLAG tag, from HEK 293 EBNA cells; signal peptide 1-21 processed; not shown: human Fc domain of vector pAPEX-3.Fc; C-terminal FLAG tag) ETFPPKYLHYDEETSHQLLCDKCPPGTYLKQHCTAKWKTVCAPCPDHYYTDSWHTSDECLYCSPVCKELQYVKQECNRTHNRVCECKEGRYLEWEFCLKHRSCPPGFGVVQAGTPERNTVCKRCPDGFFSNETSSKAPCRKHTNCSVFGLLLTQKGNATHDNICSGNSESTQK turned out to be 5

For the next question, use this binder.
The value of TRAIL fold change cf wt measured for the binder OVP I115M (Fc fusion, Ribosome display selected; tested as C-terminal Fc-linked dimer with FLAG tag, from HEK 293 EBNA cells; signal peptide 1-21 processed; also called 1R17; not shown: human Fc domain of vector pAPEX-3.Fc; C-terminal FLAG tag) ETFPPKYLHYDEETSHQLLCDKCPPGTYLKQHCTAKWKTVCAPCPDHYYTDSWHTSDECLYCSPVCKELQYVKQECNRTHNRVCECKEGRYLEMEFCLKHRSCPPGFGVVQAGTPERNTVCKRCPDGFFSNETSSKAPCRKHTNCSVFGLLLTQKGNATHDNICSGNSESTQK turned out to be 25
